FYI, the data here is from patent US20130177572A1.

molecular target: T1, human PDGFRβ (human, UniProt P09619 33-530, limits assumed); assay: solution equilibrium binding: 35S-Met labelled in vitro translated protein, human PDGFRβ titrated, capture on protein A beads, scintillation counts
T1 construct: also called hPDGFRβ; recombinant human PDGFRβ
T1 sequence (P09619 33-530 limits assumed): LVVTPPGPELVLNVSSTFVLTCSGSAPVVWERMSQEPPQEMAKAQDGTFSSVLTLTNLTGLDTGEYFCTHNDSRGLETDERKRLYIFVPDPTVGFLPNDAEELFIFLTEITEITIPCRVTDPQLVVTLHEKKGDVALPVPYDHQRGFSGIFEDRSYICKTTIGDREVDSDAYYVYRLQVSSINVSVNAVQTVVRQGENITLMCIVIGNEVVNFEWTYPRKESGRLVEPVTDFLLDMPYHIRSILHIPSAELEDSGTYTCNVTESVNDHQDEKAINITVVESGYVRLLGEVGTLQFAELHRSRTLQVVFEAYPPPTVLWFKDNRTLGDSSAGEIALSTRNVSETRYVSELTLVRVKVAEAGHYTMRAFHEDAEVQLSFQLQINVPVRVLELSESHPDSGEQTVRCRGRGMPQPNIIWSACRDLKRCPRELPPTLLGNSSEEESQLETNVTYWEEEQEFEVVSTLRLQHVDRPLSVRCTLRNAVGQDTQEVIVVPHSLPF
Assignment: determine reported pKd for the given binders.
Just so you know, pKd here is -log10 of the concentration in molar units; reply with that number alone.

Qu. GET /values?readout=pKd&item= H11 scFv (scFv, V domains shown, VL of the second round pool paired with XB1511 VH) VH: QVQLVQSGAEVKKPGSSVKVSCKASGGTFSSYAISWVRQAPGQGLEWMGGIIPIFGTANYAQKFQGRVTITADESTSTAYMELSSLRSEDTAVYYCAIHGGDRSYWGQGTLVTVSS VL: QSVLTQSPDFQSVTPKEKVTITCRASQSIGSSLHWYQQKPDQSPKLLITFASQSFSGVPSRFSGSGSGTDFTLTINSLEAEDAATYYCHQSRNLPFTFGPGTKLTVL
Ans. 7.89

Qu. Tell me the measured pKd of XB1511 VH domain (other, Isolated (unpaired) human VH domain; also called clone A4; A4 XB1511) VH: QVQLVQSGAEVKKPGSSVKVSCKASGGTFSSYAISWVRQAPGQGLEWMGGIIPIFGTANYAQKFQGRVTITADESTSTAYMELSSLRSEDTAVYYCAIHGGDRSYWGQGTLVTVSS , please.
Ans. 7.50

Qu. What value of measured pKd is listed for H10 scFv (scFv, V domains shown, VL of the second round pool paired with XB1511 VH) VH: QVQLVQSGAEVKKPGSSVKVSCKASGGTFSSYAISWVRQAPGQGLEWMGGIIPIFGTANYAQKFQGRVTITADESTSTAYMELSSLRSEDTAVYYCAIHGGDRSYWGQGTLVTVSS VL: QSVLTQSPDFQSVSPKDKVTITCRASQSIGSSLHWYQQKPGQSPKLLIKYSSQSFSGVPSRFSGSASGTEFTLTITGLEAEDAATYYCHQSSSLPHTFGQGTKVTVL ?
Ans. 7.63

Qu. Consider the binder H8 scFv (scFv, V domains shown, VL of the second round pool paired with XB1511 VH) VH: QVQLVQSGAEVKKPGSSVKVSCKASGGTFSSYAISWVRQAPGQGLEWMGGIIPIFGTANYAQKFQGRVTITADESTSTAYMELSSLRSEDTAVYYCAIHGGDRSYWGQGTLVTVSS VL: QSVLTQSPGTLSLSPGERATLSCRASQSVSSNYLAWYLQKPGQAPRLLISGASSRATGIPDRFSGSGSGTDFTLTISRLEPEDFAVYYCQQYAGSPFTFGPGTKLTVL and give its measured pKd.
Ans. 7.61
